Provenance of the data: paper PMC6063907

Molecular target: PaSAHase (Pseudomonas aeruginosa, UniProt Q9I685)
Construct: His-tag with TEV site (from vector pMCSG57) (N, cleaved yes); made in house; host or cells: E. coli BL21-CodonPlus(DE3)-RIPL
Sequence (Q9I685 1-469): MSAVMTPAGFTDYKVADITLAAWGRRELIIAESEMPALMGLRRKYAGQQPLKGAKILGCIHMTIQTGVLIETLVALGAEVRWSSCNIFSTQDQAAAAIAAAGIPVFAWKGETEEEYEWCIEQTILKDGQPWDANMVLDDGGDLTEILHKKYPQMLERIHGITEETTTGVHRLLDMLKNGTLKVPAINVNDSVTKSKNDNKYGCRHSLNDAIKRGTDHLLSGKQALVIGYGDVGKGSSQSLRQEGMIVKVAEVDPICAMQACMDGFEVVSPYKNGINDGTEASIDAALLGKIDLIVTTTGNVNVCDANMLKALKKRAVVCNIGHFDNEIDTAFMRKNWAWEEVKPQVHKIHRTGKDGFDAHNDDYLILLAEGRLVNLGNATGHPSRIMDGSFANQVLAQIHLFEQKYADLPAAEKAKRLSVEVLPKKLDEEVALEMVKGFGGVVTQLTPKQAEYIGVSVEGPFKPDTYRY
Experiment: Inhibition of PaSAHase by Zn^2+ ions (DTNB assay)
Type: biochemical
Conditions: calculated from IC50 with IC50-to-Ki converter, noncompetitive model; 100 mM KCl, 25 mM Tris·HCl pH 7.5, SAH 85 μM, enzyme 0.35 μM; read-out: inhibitory constant Ki
RESULT_TYPE: Ki (nM)
Please give a number only; it is taken to be in nM.

Field request: Ki | item: [Zn+2] [Zn^2+]
15

---

Target: wild type (WT) PaSAHase (Pseudomonas aeruginosa)
Construct: His-tag with TEV site (from vector pMCSG57) (N, cleaved yes); made in house; host or cells: E. coli BL21-CodonPlus(DE3)-RIPL
Test: ITC titration of wild type PaSAHase with adenosine
Format: binding
Settings: dissociation constant Kd, 100 mM Cs^+, pH 7.5, 293 K
RESULT_TYPE: Kd (µM)
Please give a number only; it is taken to be in µM.

Field request: Kd | item: "Nc1ncnc2c1ncn2[C@@H]1O[C@H](CO)[C@@H](O)[C@H]1O"
4.7

---

Target: wild type (WT) PaSAHase (Pseudomonas aeruginosa, UniProt Q9I685)
Construct: His-tag with TEV site (from vector pMCSG57) (N, cleaved yes); made in house; host or cells: E. coli BL21-CodonPlus(DE3)-RIPL
Assay type: biochemical
Details: WT enzyme, 100 mM MeCl, 25 mM HEPES·MeOH pH 7.5, substrate SAH, 293 K; ± SEM
RESULT_TYPE: kcat/KM (M⁻¹ s⁻¹)
Please give a number only; it is taken to be in M⁻¹ s⁻¹.

See these solved cases before continuing.
MOLECULE	TARGET_SYSTEM	kcat/KM (M⁻¹ s⁻¹)
[K+] [K^+]	wild type (WT) PaSAHase (Pseudomonas aeruginosa, UniProt Q9I685)	72502
[Li+] [Li^+]	wild type (WT) PaSAHase (Pseudomonas aeruginosa, UniProt Q9I685)	731

Field request: kcat/KM | item: [Rb+] [Rb^+]
3568

Field request: kcat/KM | item: [Cs+] [Cs^+]
6668

Field request: kcat/KM | item: [Na+] [Na^+]
8467
